Reference for the values: ChEMBL document CHEMBL4330140

// Adenosine receptor A3 (Homo sapiens, UniProt P0DMS8) pKi records
One number for each entry, as −log10 of the molar value.

Worked set:
structure_smiles_string=O=C(Nc1nc(-c2ccccc2)nc2sc(-c3ccccc3)nc12)c1ccco1 tested_on="Adenosine receptor A3 (Homo sapiens, UniProt P0DMS8)" attribute_measured=pKi assay_value=7.32
structure_smiles_string=Cc1ccc(-c2nc(N)c3nc(-c4ccccc4)sc3n2)o1 tested_on="Adenosine receptor A3 (Homo sapiens, UniProt P0DMS8)" attribute_measured=pKi assay_value=7.60
structure_smiles_string=Nc1nc(-c2ccc(CO)cc2)nc2sc(-c3ccccc3)nc12 tested_on="Adenosine receptor A3 (Homo sapiens, UniProt P0DMS8)" attribute_measured=pKi assay_value=8.09
structure_smiles_string=COc1cccc(-c2nc(N)c3nc(-c4ccco4)sc3n2)c1 tested_on="Adenosine receptor A3 (Homo sapiens, UniProt P0DMS8)" attribute_measured=pKi assay_value=8.31
structure_smiles_string=O=C(Nc1nc(-c2ccccc2)nc2sc(-c3ccco3)nc12)c1ccccc1 tested_on="Adenosine receptor A3 (Homo sapiens, UniProt P0DMS8)" attribute_measured=pKi assay_value=7.49
structure_smiles_string=Nc1nc(-c2cccc(O)c2)nc2sc(-c3ccccc3)nc12 tested_on="Adenosine receptor A3 (Homo sapiens, UniProt P0DMS8)" attribute_measured=pKi assay_value=6.72

// for each molecule below, give its pKi
1. Nc1nc(-c2cccc(O)c2)nc2sc(-c3ccco3)nc12
2. Nc1nc(-c2ccco2)nc2sc(-c3ccccc3)nc12
3. Nc1nc(-c2ccccc2)nc2sc(-c3ccco3)nc12

Reply:
7.80
8.55
7.82

---

// Adenosine receptor A1 (Homo sapiens) Ki records
Answers are plain numbers, in nM.

structure_smiles_string=Nc1nc(-c2cccc(O)c2)nc2sc(-c3ccco3)nc12 attribute_measured=Ki assay_value=51

// for each molecule below, give its Ki
1. Nc1nc(-c2cccc(CO)c2)nc2sc(-c3ccccc3)nc12
2. O=C(Nc1nc(-c2ccccc2)nc2sc(-c3ccco3)nc12)c1ccco1

Reply:
1. 32
2. 265

---

Target protein (sequence): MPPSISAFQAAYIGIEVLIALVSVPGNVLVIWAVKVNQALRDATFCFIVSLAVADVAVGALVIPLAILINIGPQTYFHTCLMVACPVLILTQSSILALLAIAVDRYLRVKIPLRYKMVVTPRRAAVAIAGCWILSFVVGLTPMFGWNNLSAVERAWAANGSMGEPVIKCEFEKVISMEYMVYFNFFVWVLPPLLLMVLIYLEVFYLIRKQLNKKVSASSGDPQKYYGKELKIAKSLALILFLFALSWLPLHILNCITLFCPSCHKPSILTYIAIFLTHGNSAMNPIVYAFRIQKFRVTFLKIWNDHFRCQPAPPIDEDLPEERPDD
Please go through the items and note down their Ki.
Give bare numbers, in µM.

structure_smiles_string=Nc1nc(-c2ccccc2)nc2sc(-c3ccccc3)nc12 unit_abbreviation=µM assay_value=0.148
structure_smiles_string=Nc1nc(-c2ccc(CO)cc2)nc2sc(-c3ccco3)nc12 unit_abbreviation=µM assay_value=0.0777
structure_smiles_string=COc1cccc(-c2nc(N)c3nc(-c4ccccc4)sc3n2)c1 unit_abbreviation=µM assay_value=0.176
structure_smiles_string=COc1ccc(-c2nc(N)c3nc(-c4ccccc4)sc3n2)cc1 unit_abbreviation=µM assay_value=0.225
structure_smiles_string=Nc1nc(-c2cccc(CO)c2)nc2sc(-c3ccco3)nc12 unit_abbreviation=µM assay_value=0.028
structure_smiles_string=Nc1nc(-c2ccc(CO)cc2)nc2sc(-c3ccccc3)nc12 unit_abbreviation=µM assay_value=0.082

// for each compound below, give its Ki
1. O=C(Nc1nc(-c2ccccc2)nc2sc(-c3ccccc3)nc12)c1ccccc1
2. O=C(Nc1nc(-c2ccccc2)nc2sc(-c3ccccc3)nc12)c1ccco1
3. Nc1nc(-c2ccco2)nc2sc(-c3ccccc3)nc12
4. Cc1ccc(-c2nc(N)c3nc(-c4ccco4)sc3n2)o1
5. COc1ccc(C(=O)Nc2nc(C)nc3sc(-c4ccccc4)nc23)cc1

Reply:
1. 1.47
2. 2.28
3. 0.067
4. 0.0459
5. 1.46
